Each entry below lists one item and its recorded Wave efficiency value.
testDetails: Permanent wave processing of hair, wave efficiency by Kilby method
settings: pH 6 first liquid; compound at 2% in terms of reducing power of thioglycolic acid; soaked at 35° C. for 20 minutes; bromate second liquid 25° C. 10 minutes
Counter-ions that a name gives are not always drawn.
Just the number plus its unit, please.

Consider the worked cases shown below.
compound	assayMetric	measurement
CCCCOCCOC(=O)CS [TGE-3, 2-butoxyethyl thioglycolate]	Wave efficiency	79%
COCCOCCOCCOC(=O)CS [TGE-9, 8-methoxy-3,6-dioxaoctyl thioglycolate]	Wave efficiency	75%
COCC(C)OC(=O)CS (centres unmarked) [TGE-7, 2-methoxy-1-methylethyl thioglycolate]	Wave efficiency	79%

Query block: Given the entry COCCOCCOCCOC(=O)CS [TGE-6, 8-methoxy-3,6-dioxaoctyl thioglycolate] , report its measured Wave efficiency.
Result block: 63%

Query block: Given the entry NCCS [Cysteamine hydrochloride, cysteamine hydrochloride, reference compound] , report its measured Wave efficiency.
Result block: 52%

Query block: Given the entry CCOCCOC(=O)CS [TGE-2, 2-ethoxyethyl thioglycolate] , report its measured Wave efficiency.
Result block: 84%

Query block: Given the entry CCOCC(C)OC(=O)CS (centres unmarked) [TGE-8, 2-ethoxy-1-methylethyl thioglycolate] , report its measured Wave efficiency.
Result block: 80%

Query block: Given the entry CCOCCOCCOC(=O)CS [TGE-5, 5-ethoxy-3-oxapentyl thioglycolate] , report its measured Wave efficiency.
Result block: 70%
